Tested on: MS2 coat protein
Assay: apparent KD of MS2 coat protein; designed switch direction (-1 OFF switch, 1 ON switch): -1; higher = weaker reporter binding
Details: input ligand: microRNA oligo, concentration not stated
Could you label it yes (1) if measured apparent KD of MS2 coat protein is 20 nM or higher, and no (0) otherwise?

POLYMER SEQUENCE	CLASS NAME
GAAAAGUCAGGAUAUGCAGAUAAAAAAACGAAAAAAAAUCUGCAGAAGGGACAUGAGGAUCACCCAUGUAAAAG [Mat - Exclusion 4 - Mayanna - D110] (Eterna round: R96, puzzle: Exclusion 4)	yes (1)
ACAUGAGGAUCACCCAUGUGAAAGAAAUGGCUGACUUUGAGCUAGGAUAUUUGUGCAUAUCAAACGAAGAAGGAGCAUUACUGG [Deportation 100 - Jieux - Exclusion NG 3] (Eterna round: R96, puzzle: Exclusion NG 3)	no (0)
UUAGAAAUGGUAGGAUAUUAGUAGUGUUUUACUCUGAUCCACAUGAGGAUCACCCAUGUGAGUAGUGAGAAGGAUCAUUUUAUG [base off of JR design] (Eterna round: R96, puzzle: Exclusion NG 2)	no (0)
GCAGCAUAGAUAACAGUCUGAUACAUGAGGAUCACCCAUGUACAGGAUAUGGUCUGGAUUACAGGCCAGAAGGGUACAAGCUGC [Eli exng3 - 014] (Eterna round: R96, puzzle: Exclusion NG 3)	no (0)
AGCGUGGAGACAGGAUAUGAGAAUAGAUAGAAAUCAGAAGGGUCACAUGAGGAUCACCCAUGUAAAGUCUUGAGGAUGAGUGAU [Prohibition 3 - Jieux - Exclusion NG 1] (Eterna round: R96, puzzle: Exclusion NG 1)	yes (1)
UUUUUAUUUGAAGGAUAUACUUAACAUGAGGAUCACCCAUGUGGUGUUGUGAGUGAGUGAGUUUAGUAGAAGGUCAAUUAUUUU [JMF's solution 18] (Eterna round: R96, puzzle: Exclusion NG 2)	yes (1)
GCGGACUAGAUCGUGAGAUCUGAGACAUGAGGAUCACCCAUGUAGGAUAUCGAUUCGAAACGAAUCGAGAAGGGCAUAGUCCGC [JL denovo 8] (Eterna round: R96, puzzle: Exclusion NG 3)	no (0)
CUAAAUCAUGUAGGAUAUGCGUGGCGAAGCUAUGCAGAAGGACAUGAGGAUCACCCAUGUGCUUCCGUCUGAGAACAGACGGAA [Mat - Exclusion NG 1 - Mod of JL - D26] (Eterna round: R96, puzzle: Exclusion NG 1)	yes (1)
CGGCAUGUCUGAGGAUAUCUGCACGUGUAGUGCAGAGAAGGCAGAACAUGAGGAUCACCCAUGUAGAUCAUUAACCGAUUAAUU [ENG1/7-A3] (Eterna round: R96, puzzle: Exclusion NG 1)	yes (1)
